Please assign not met whenever logP is at or above 0.6, and met whenever it is below.

The following molecules have reported results that may help.
- OC[C@H]1O[C@@H](n2cnc3ccccc32)C[C@@H]1O: not met
- Nc1nc(Cl)nc2c1ccn2[C@H]1C[C@H](O)[C@@H](CO)O1: met
- Nc1ncnc2ncn([C@H]3C[C@H](O)[C@@H](CO)O3)c12: met
- OCC1OC(n2cnc3c(NCc4ccccc4)nc(Cl)nc32)CC1O (stereo not given): not met
- OC[C@H]1O[C@@H](n2nnc3ccccc32)C[C@@H]1O: met

(Q) Quick check: does "OCCNc1nc(Cl)nc2c1ncn2[C@H]1C[C@@H](O)[C@@H](CO)O1" have logP under 0.6?
(A) met

(Q) Follow-up item: "Nc1ncnc2c1ncn2[C@H]1C[C@H](O)[C@@H](CO)O1"
(A) met

(Q) Follow-up item: "CCn1cnc2c(N)nc(Cl)nc21"
(A) not met

(Q) Follow-up item: "Nc1nc(Cl)nc2c1cnn2[C@H]1C[C@H](O)[C@@H](CO)O1"
(A) met

(Q) Follow-up item: "CNc1nc(Cl)nc2c1ncn2[C@H]1C[C@H](O)[C@@H](CO)O1"
(A) not met

(Q) Follow-up item: OCC1OC(n2cnc3c(NC4CCCCC4)nc(Cl)nc32)CC1O (stereo not given)
(A) not met

(Q) Follow-up item: "Nc1nc(Cl)nc2nc[nH]c12"
(A) met

(Q) Follow-up item: Nc1nc(Br)nc2c1ncn2C1CC(O)C(CO)O1 (stereo not given)
(A) met

(Q) Follow-up item: "OC[C@H]1O[C@@H](n2nc3ccccc3n2)C[C@@H]1O"
(A) not met

(Q) Follow-up item: Nc1nc(Cl)nc2c1nc(Br)n2C1CC(O)C(CO)O1 (stereo not given)
(A) not met
